# Tested on: U251 CNS
# experimental.details: NCI tumour cell line growth inhibition, 48 h
readout.name: TGI

compound="Nc1nc2c(ncn2C2OC(CO)C(O)C2N)c(=O)[nH]1 (stereo not given)" readout_name=TGI measurement="> 100 µM"
compound=CCOC(=O)c1ccc2nc(NC(=O)COC(=O)CSc3nc(C)cc(C)n3)sc2c1 readout_name=TGI measurement="> 100 µM"
compound=CCCn1c(C23CC4CC(CC(C4)C2)C3)nc2ccc(Cl)cc2c1=O readout_name=TGI measurement="> 100 µM"
compound=CCOC(=O)C(C)(C)Oc1ccc2c(=O)cc(-c3ccccc3)oc2c1 readout_name=TGI measurement="44.9 µM"
compound=Cc1nc(C)c(C(=O)Nc2cccc3c2C(=O)NC3=O)cc1C(=O)Nc1cccc2c1C(=O)NC2=O readout_name=TGI measurement="> 100 µM"
compound=CC1(C)CCC[C@]23C(=O)O[C@](O)(C(=O)C4=C[C@@](C)(/C=C/CCCc5ccc6ccc7cccc8ccc5c6c78)CC[C@@]42O)[C@@H]13 readout_name=TGI measurement="0.344 µM"
compound=CN(C(=O)C1(C(=O)C=[N+]=[N-])CC1)c1ccccc1 readout_name=TGI measurement="> 100 µM"
compound=COC(=O)c1sc(=S)sc1SCc1ccccc1CSc1sc(=S)sc1C(=O)OC readout_name=TGI measurement="> 100 µM"
compound=O=C1NC(=O)/C(=C/C=C/c2ccccc2)S1 readout_name=TGI measurement="18.1 µM"
compound=Cc1ccc(S(=O)(=O)N(/N=C(\N)Oc2ccc(Cl)cc2)C(=N)Oc2ccc(Cl)cc2)cc1 readout_name=TGI measurement="> 100 µM"
compound="CC(C)[C@@H]1C=C(c2ccccc2)c2ccccc2C1C(C#N)(C#N)C(C)C (stereo not given in full)" readout_name=TGI measurement="> 100 µM"
compound=Cc1cc(C)cc(-n2c3nc(=O)n(C)c(=O)c-3nc3ccccc32)c1 readout_name=TGI measurement="50.5 µM"
compound=CC(=O)NS(=O)(=O)c1ccc(NC(=O)COC(=O)c2cccc3c(=O)c4ccccc4[nH]c23)cc1 readout_name=TGI measurement="> 100 µM"
compound=Cn1nc(C(F)(F)F)c(-c2ccc(Cl)c(C(F)(F)F)c2)c1-c1ccc(OCc2ccc(Cl)cc2)cc1O readout_name=TGI measurement="5.62 µM"
compound=COc1ccccc1/C=C\c1cnnc2ccccc12 readout_name=TGI measurement="> 10 µM"
compound=Cc1nnc2cc(C(=O)O)c3ccccc3n2c1=O readout_name=TGI measurement="> 10 µM"
compound="COP(=O)(OC)C(N)CCSC (stereo not given)" readout_name=TGI measurement="> 100 µM"
compound=COc1ccc(-c2nn(-c3cccc(Cl)c3)cc2C=C(C#N)C#N)cc1 readout_name=TGI measurement="3.33 µM"
compound="COc1cc(C2C3=C(CCC3=O)Oc3cc4c(cc32)OCO4)cc(OC)c1OC (stereo not given)" readout_name=TGI measurement="> 100 µM"
compound=Cc1cc(NS(=O)(=O)c2ccc(Nc3c4ccccc4nc4c(C(=O)Nc5ccc(S(=O)(=O)N=C(N)N)cc5)cccc34)cc2)no1 readout_name=TGI measurement="> 100 µM"

----------
# Test system: XF 498 CNS
# experimental.details: NCI tumour cell line growth inhibition, 48 h
Listing of recorded TGI by entry.
readout.name: TGI

compound="COc1cc(C2C3=C(CCC3=O)Oc3cc4c(cc32)OCO4)cc(OC)c1OC (stereo not given)" measurement="0.736 µM"
compound=Cc1cc(NS(=O)(=O)c2ccc(Nc3c4ccccc4nc4c(C(=O)Nc5ccc(S(=O)(=O)N=C(N)N)cc5)cccc34)cc2)no1 measurement="> 100 µM"
compound=COc1cccc(NC(=O)CSc2nnc(-c3ccc(N=Cc4ccc(Cl)cc4)cc3)o2)c1 measurement="37.7 µM"
compound=Cc1ccc2nc3c(C)c(Cl)c(=O)cc-3sc2c1 measurement="32.5 µM"
compound=CC1=NNC(=NCCN(C)C)C/C1=C/c1ccccc1Cl measurement="> 100 µM"
compound=CCCCc1c2c(nc3c1CCc1cc4c(nc1-3)-c1nc3c(c(CCCC)c1CC4)CCC/C3=C\c1ccccc1)/C(=C/c1ccccc1)CCC2 measurement="66.6 µM"
compound=O=S1(=O)NNC(=NCc2ccc(Cl)cc2)c2ccccc21 measurement="> 100 µM"
compound="COC(=O)C1=C(OC)c2cc3c(cc2C(c2cc(OC)c(OC)c(OC)c2)C1C(=O)OC)OCO3 (stereo not given)" measurement="> 100 µM"
compound=CN1CCn2c(Br)ccc2C1=O measurement="> 100 µM"
compound=COc1ccc(/C=C2\Cc3ccccc3C2=O)cc1OC measurement="> 100 µM"
